system: Saccharomyces cerevisiae; test: Compound was tested for growth inhibition against Saccharomyces cerevisiae (ATCC 28383); type: functional, organism-based
pIC50: −log10 of the molar value.
property.label: pIC50

CC(C)CCC[C@@H](C)C1CC[C@H]2[C@@H]3C[C@@H](N)C4C[C@@H](O)CC[C@]4(C)[C@H]3CC[C@]12C (some centres not stated): > 4.82

Lab note: next molecule to report on.
Look up pIC50 for this molecule: CC(C)CCC[C@@H](C)C1CC[C@H]2[C@@H]3C[C@H](N)[C@H]4C[C@@H](O)CC[C@]4(C)[C@H]3CC[C@]12C (some centres not stated)
> 4.82
